# assay.comment: Verification pharmacokinetic experiment in rats, SPC 60 g crude drug/kg by gavage, UFLC-MS/MS, DAS 2.0
# Assay type: in vivo, rat
# condition.parameters: rat, plasma, oral; time 6 h; rats p.o. SPC 60 g crude drug/kg; doses of 1-4: 0.124, 0.22, 1.4, 2.62 mg/kg; 5 rats
concentration at 6 h: recorded values
quantity.kind: concentration at 6 h

INSERT INTO assay_data (molecule_smiles, quantity_kind, val) VALUES
  ('O=c1c(-c2ccc(O)cc2)coc2cc(O[C@@H]3O[C@H](CO)[C@@H](O)[C@H](O)[C@H]3O)ccc12', 'concentration at 6 h', '1.39 ng/mL'),
  ('COc1ccc(-c2coc3c(OC)c(O)ccc3c2=O)cc1', 'concentration at 6 h', '0.445 ng/mL'),
  ('COc1cc([C@H]2c3cc(O)c(OC)cc3C[C@@H](CO)[C@@H]2CO)ccc1O', 'concentration at 6 h', '2.01 ng/mL'),
  ('COc1cc(-c2coc3cc(O)ccc3c2=O)ccc1O', 'concentration at 6 h', '0.553 ng/mL');

Data provenance is paper PMC11677527.
